target: T1, GLP-1R (INS1e assay) (UniProt P32301 22-463, limits assumed)
T1 sequence (looked up): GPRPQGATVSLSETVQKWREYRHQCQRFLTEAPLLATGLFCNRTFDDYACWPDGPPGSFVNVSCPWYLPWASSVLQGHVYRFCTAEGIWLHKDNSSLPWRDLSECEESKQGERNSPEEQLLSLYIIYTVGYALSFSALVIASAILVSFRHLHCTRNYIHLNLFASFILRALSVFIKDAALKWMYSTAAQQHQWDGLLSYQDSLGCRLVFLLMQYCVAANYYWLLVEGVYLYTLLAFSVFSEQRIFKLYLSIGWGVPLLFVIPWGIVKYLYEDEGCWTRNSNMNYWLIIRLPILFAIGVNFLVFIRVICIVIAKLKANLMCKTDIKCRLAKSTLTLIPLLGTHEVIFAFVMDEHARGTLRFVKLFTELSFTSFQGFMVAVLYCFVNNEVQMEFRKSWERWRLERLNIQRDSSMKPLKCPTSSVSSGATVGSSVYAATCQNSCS
experimentSummary: cell-based or functional assay
Starred links: 1 amine or outer side, 2 acyl side, 3 side chain; linkers in the order of their positions; H or OH if unused. Non-standard residues stand in square brackets, D forms with d. Groups on a side chain read outwards from the residue. Primed or numbered codes have the meaning given here. No end group written: not given here. *: point of attachment. γGlu = O=C(O)[C@H](CCC(=O)[*:2])N[*:1]; Stearoyl = CCCCCCCCCCCCCCCCCC(=O)*; αMeF = C[C@](N)(Cc1ccccc1)C(=O)O; αMeK = C[C@](N)(CCCCN)C(=O)O; Lauroyl = CCCCCCCCCCCC(=O)*; αMeS = C[C@](N)(CO)C(=O)O; PEG2′ = not defined here; Aib = CC(C)(N)C(=O)O
measurementKind: INS1e assay EC50 Mean pM GLP-1R (pM)

Before answering, review these 5 worked examples.
>  <binder>
H[Aib]EGS[αMeF]TSDV[αMeS]S[αMeF]LEGEAA[αMeK]E[αMeF]IA[αMeF]VVK([PEG2′-PEG2′-Stearoyl])GG-NH2 [SEQ ID NO 198]

>  <measurementKind>
INS1e assay EC50 Mean pM GLP-1R

>  <unitAbbreviation>
pM

>  <result>
1140

$$$$
>  <binder>
H[Aib]EGSFTSDV[αMeS]S[αMeF]LEGEAAK([PEG2′-PEG2′-PEG2′-Stearoyl])E[αMeF]IA[αMeF]VV[αMeK]GG-NH2 [SEQ ID NO 51]

>  <measurementKind>
INS1e assay EC50 Mean pM GLP-1R

>  <unitAbbreviation>
pM

>  <result>
23

$$$$
>  <binder>
H[Aib]EGS[αMeF]TSDV[αMeS]S[αMeF]LEGEAAK([PEG2′-PEG2′-PEG2′-Stearoyl])E[αMeF]IAWVV[αMeK]GG-NH2 [SEQ ID NO 55]

>  <measurementKind>
INS1e assay EC50 Mean pM GLP-1R

>  <unitAbbreviation>
pM

>  <result>
11

$$$$
>  <binder>
H[Aib]EGS[αMeF]TSDV[αMeS]S[αMeF]LEK([PEG2′-PEG2′-γGlu-Stearoyl])EAA[αMeK]E[αMeF]IA[αMeF]VV[αMeK]GG-NH2 [SEQ ID NO 113]

>  <measurementKind>
INS1e assay EC50 Mean pM GLP-1R

>  <unitAbbreviation>
pM

>  <result>
1040

$$$$
>  <binder>
H[Aib]EGS[αMeF]TSDV[αMeS]S[αMeF]LEGEAA[αMeK]E[αMeF]IA[αMeF]VVK([PEG2′-PEG2′-Lauroyl])GG-NH2 [SEQ ID NO 171]

>  <measurementKind>
INS1e assay EC50 Mean pM GLP-1R

>  <unitAbbreviation>
pM

>  <result>
128

$$$$

A: H[Aib]EGS[αMeF]TSDV[αMeS]S[αMeF]LEGEAA[αMeK]EK([PEG2′-PEG2′-γGlu-Stearoyl])IA[αMeF]VV[αMeK]GG-NH2 [SEQ ID NO 107]
B: H[Aib]EGS[αMeF]TSDV[αMeS]S[αMeF]LEGEAAK([PEG2′-PEG2′-γGlu-Stearoyl])E[αMeF]IA[αMeF]VV[αMeK]GG-NH2 [SEQ ID NO 33]
Higher INS1e assay EC50 Mean pM GLP-1R between A and B ? # reply format: chosen label A

P: H[Aib]EGS[αMeF]TSDV[αMeS]SYLEGEAAK([PEG2′-PEG2′-γGlu-Stearoyl])E[αMeF]IA[αMeF]VV[αMeK]GG-NH2 [SEQ ID NO 47]
Q: H[Aib]EGS[αMeF]TSDV[αMeS]S[αMeF]LEGEAAK([PEG2′-PEG2′-Lauroyl])E[αMeF]IA[αMeF]VV[αMeK]GG-NH2 [SEQ ID NO 135]
// compare measured INS1e assay EC50 Mean pM GLP-1R, left P , right Q , return larger # respond with the chosen item's label P
(P: 9660 pM, Q: 79 pM)
